Listing: bioluminescence of selected compounds
Tested on: LEGO organoid PT (PTEN-/-; TP53-/-)
Assay: bioluminescence (viable cell) signal fold change after vs before treatment, normalised to DMSO (ratio); higher = more tumour cell growth / less inhibition
Conditions: 10 µM; treatment time 6 days
# output: bare number, no unit

Would you please look over these solved cases?
compound=CCCCS(=O)(=O)N[C@@H](Cc1ccc(OCCCCC2CCNCC2)cc1)C(=O)O readout_name=bioluminescence observed_measurement=0.741
compound=Cc1nc(Nc2ncc(C(=O)Nc3c(C)cccc3Cl)s2)cc(N2CCN(CCO)CC2)n1 readout_name=bioluminescence observed_measurement=0.748
compound="CC(C)NCC(O)COc1ccc(CC(N)=O)cc1 (stereo not drawn)" readout_name=bioluminescence observed_measurement=1.39
compound=Nc1nc2c(ncn2COC(CO)CO)c(=O)[nH]1 readout_name=bioluminescence observed_measurement=4.35
compound="CC(C)NCC(O)COc1cccc2ccccc12.Cl (stereo not drawn) [Propranolol hydrochloride]" readout_name=bioluminescence observed_measurement=1.03

Exercise: Report bioluminescence on LEGO organoid PT (PTEN-/-; TP53-/-) for this entry: `C[C@H]1[C@H](NC(=O)/C(=N\OC(C)(C)C(=O)O)c2csc(N)n2)C(=O)N1S(=O)(=O)O`
Solution: 1.04

Exercise: Report bioluminescence from LEGO organoid PT (PTEN-/-; TP53-/-) testing of CC/C(=C(\c1ccccc1)c1ccc(OCCN(C)C)cc1)c1ccccc1.O=C(O)CC(O)(CC(=O)O)C(=O)O [Tamoxifen Z-isomer citrate]
Solution: 0.933

Exercise: Given CN1[C@@H]2CCC[C@H]1C[C@@H](NC(=O)c1nn(C)c3ccccc13)C2.Cl [Granisetron hydrochloride] , report its bioluminescence on LEGO organoid PT (PTEN-/-; TP53-/-).
Solution: 0.715

----------
Each entry below carries its recorded bioluminescence.
Tested on: LEGO organoid PTN (PTEN-/-; TP53-/-; NF1-/-)
Experiment: bioluminescence (viable cell) signal fold change after vs before treatment, normalised to DMSO (ratio); higher = more tumour cell growth / less inhibition
Conditions: 10 µM; treatment time 6 days

The following compounds have reported results that may help.
compound=COc1ccc2c(c1)c(CC(=O)O)c(C)n2C(=O)c1ccc(Cl)cc1 observed_measurement=1.76
compound="O=c1[nH]c(=O)n(C2CCCO2)cc1F (stereo not given)" observed_measurement=0.727
compound=Nc1[nH]c(=O)ncc1F observed_measurement=1.26
compound=Cc1cc(NS(=O)(=O)c2ccc(N)cc2)no1 observed_measurement=1.8

# input for lookup
Exercise: Output bioluminescence of `COc1cc(Nc2ncc(F)c(Nc3ccc4c(n3)N(COP(=O)(O)O)C(=O)C(C)(C)O4)n2)cc(OC)c1OC`
Solution: 0.0646

----------
System: LEGO organoid PT (PTEN-/-; TP53-/-)
Experiment: bioluminescence (viable cell) signal fold change after vs before treatment, normalised to DMSO (ratio); higher = more tumour cell growth / less inhibition
Settings: 10 µM; treatment time 6 days
readout-name: bioluminescence
Answer using only a numeral; do not append any unit.

compound="Oc1c(I)cc(Cl)c2cccnc12 [Clioquinol]" observed_measurement=0.859

Exercise: # return recorded bioluminescence for input CC(C(=O)O)c1ccc(-c2ccccc2)c(F)c1 (stereo not drawn) [Flurbiprofen]
Solution: 1.09

Exercise: Please look at this compound and report its bioluminescence: CC(=O)OCC(=O)[C@@]1(O)CC[C@H]2[C@@H]3CCC4=CC(=O)C=C[C@]4(C)[C@H]3[C@@H](O)C[C@@]21C [Prednisolone-21-acetate]
Solution: 0.578

Exercise: Determine its reported bioluminescence: CCn1c(=O)c2c(nc(/C=C/c3ccc(OC)c(OC)c3)n2C)n(CC)c1=O [Istradefylline]
Solution: 0.737

Exercise: Identify measured bioluminescence associated with COc1cc2c(Nc3ccc(Br)cc3F)ncnc2cc1OCC1CCN(C)CC1 [Vandetanib]
Solution: 1.32

Exercise: Specify reported bioluminescence for the compound shown: N#Cc1ccc2[nH]cc(CCCCN3CCN(c4ccc5oc(C(N)=O)cc5c4)CC3)c2c1 [Vilazodone]
Solution: 0.812

Exercise: Give the reported bioluminescence for this compound. CN(C)CC(c1ccc(O)cc1)C1(O)CCCCC1.O=C(O)CCC(=O)O (stereo not drawn) [Desvenlafaxine succinate hydrate]
Solution: 1.67

Exercise: Quickly give me recorded bioluminescence for CC/C(=C(/CC)c1ccc(O)cc1)c1ccc(O)cc1 [Diethylstilbestrol]
Solution: 1.01
